# ASSAYED SYSTEM: Aβ42 (Homo sapiens)
# Sequence (P05067 672-713): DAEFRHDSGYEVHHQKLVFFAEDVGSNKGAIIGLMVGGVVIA
# MEASUREMENT DESCRIPTION: Th-T (thioflavin-T) assay of Aβ42 aggregation
# Assay type: biochemical
# STATED CONDITIONS: measurement M12; source data, Ab alone and No Ab as controls
QUANTITY NAME: Th-T assay plate reading, mean of three wells (Supplementary Fig. 47)
// keep it numeric: no unit symbol after the value

Here's what some known entries look like.
compound=C=C1CC[C@H]2[C@]3(C)C[C@@H](C=C(C)C)O[C@H]3CC[C@]2(C)[C@@H]1Cc1c(OC)oc(CO)c(C)c1=O recorded_number=1.864
compound="C=C1CCC2C(C)(CCC=C(C)C)C(O)CCC2(C)C1Cc1c(OC)oc(C)c(C)c1=O (stereo not drawn) [Compound 15, viridoxin A hydrolysate]" recorded_number=1.748
compound="C=C1CCC2C(C)(CC(=O)C=C(C)C)C(O)CCC2(C)C1Cc1c(O)c(C)c(C)oc1=O (stereo not drawn)" recorded_number=0.7635
compound=C=C1CC[C@H]2[C@]3(C)C[C@@H](C=C(C)C)O[C@H]3CC[C@]2(C)[C@@H]1Cc1c(O)c(C)c(C)oc1=O recorded_number=0.8255
compound=C=C1CC[C@H]2[C@]3(C)C[C@H](C=C(C)C)O[C@H]3CC[C@]2(C)[C@@H]1Cc1c(OC)oc(CO)c(C)c1=O recorded_number=1.169

# context switch: different compound, same Th-T assay plate reading, mean of three wells (Supplementary Fig. 47)
Per the record, C=C1CCC2C(C)(CCC=C(C)C)C(O)CCC2(C)C1Cc1c(OC)oc(CO)c(C(=O)OC)c1=O (stereo not drawn) has Th-T assay plate reading, mean of three wells (Supplementary Fig. 47) of 0.1685
